All figures here come from patent US8211929B2.

testedSystem: IGF 3P (Homo sapiens, UniProt P08069)
Construct: human IGF1R kinase domain residues M954-C1367; made in house; host or cells: baculovirus expression (insect cells)
Sequence (P08069 954-1367): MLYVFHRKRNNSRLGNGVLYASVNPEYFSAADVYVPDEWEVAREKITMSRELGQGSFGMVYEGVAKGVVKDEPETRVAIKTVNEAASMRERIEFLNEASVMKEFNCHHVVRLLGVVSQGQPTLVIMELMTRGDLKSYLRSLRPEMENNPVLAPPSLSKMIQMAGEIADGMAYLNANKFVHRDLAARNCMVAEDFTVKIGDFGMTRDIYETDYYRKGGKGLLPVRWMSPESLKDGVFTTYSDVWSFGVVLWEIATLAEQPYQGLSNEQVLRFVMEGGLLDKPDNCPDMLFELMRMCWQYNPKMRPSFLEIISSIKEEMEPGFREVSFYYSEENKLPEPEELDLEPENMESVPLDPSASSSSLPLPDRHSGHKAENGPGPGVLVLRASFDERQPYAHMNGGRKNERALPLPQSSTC
protocolSummary: IGF1R kinase assay (LCCA), IGF 3P
Assay type: biochemical
IC50 listing for selected compounds.

// worked examples, IC50 included
- Cc1cc(CNc2nc(C)cc(Nc3cc(C4CC4)n[nH]3)n2)on1: 50 to 500 nM
- CC(C)c1cc(Nc2cc(N3CCOCC3)nc(NCc3cc(-c4ccc(F)cc4)no3)n2)[nH]n1: < 50 nM

IC50 for CC(C)c1cc(Nc2cc(OCCN3CCOCC3)nc(NCc3cc(-c4ccc(F)cc4)no3)n2)[nH]n1 is < 50 nM

Memo: Cc1cc(CNc2nc(Nc3cc(C4CC4)[nH]n3)cc(NC3CC4CCC3C4)n2)on1 (centres unmarked) , reported IC50: < 50 nM

Per the record, Cc1cc(Nc2cc(C3CC3)[nH]n2)nc(NCc2cc(-c3ccc(F)cc3F)no2)n1 has IC50 of < 50 nM

* * *

testedSystem: (Homo sapiens, UniProt P08069)
Construct: human IGF1R kinase domain residues M954-C1367; made in house; host or cells: baculovirus expression (insect cells)
Sequence (P08069 954-1367): as above
protocolSummary: IGF1R kinase assay (LCCA), IGF 0P
Type: biochemical
measurementParameters: IGF1R kinase LCCA assay
pIC50: −log10 of the molar value.
valueType: pIC50

// below: answered molecules
* Cc1cc(C)cc(Nc2ncc(Br)c(Nc3cc(C4CC4)n[nH]3)n2)c1 | 5.30 to 6.30
* O=C(Nc1ccc(Cl)c(Nc2ncc(Br)c(Nc3cc(C4CC4)[nH]n3)n2)c1)c1ccccc1 | 5.30 to 6.30
* Cc1cc(Nc2cc(C3CC3)n[nH]2)nc(Nc2ccc(CCNC(=O)OC(C)(C)C)cc2)n1 | 5.30 to 6.30
* COc1cc(Nc2ncc(Br)c(Nc3cc(C)on3)n2)cc(OC)c1 | 6.30 to 7.30
* CCN(CC)CCCNC(=O)CCc1cccc(Nc2ncc(Br)c(Nc3cc(C4CC4)n[nH]3)n2)c1 | 5.30 to 6.30

The reported pIC50 value, (Homo sapiens, UniProt P08069), for Brc1cnc(Nc2ccc(N3CCOCC3)cc2)nc1Nc1ccc2c(c1)CNCC2 reads 5.30 to 6.30

I looked up Cc1cc(Nc2cc(C3CC3)n[nH]2)nc(Nc2ccc3c(c2)CNCC3)n1 and its pIC50 for (Homo sapiens, UniProt P08069) was 5.30 to 6.30

Here Nc1ccc(Nc2nc(Nc3cc(C4CC4)n[nH]3)ncc2Br)cc1 was tested on (Homo sapiens, UniProt P08069), and its pIC50 came to < 5.30

* * *

testedSystem: IGF 3P (Homo sapiens)
Construct: human IGF1R kinase domain residues M954-C1367; made in house; host or cells: baculovirus expression (insect cells)
protocolSummary: IGF1R kinase assay (LCCA), IGF 3P
Format: biochemical
measurementParameters: IGF1R kinase LCCA assay
valueType: IC50

- Cc1cc(Nc2cc(C3CC3)n[nH]2)nc(Nc2ccc(CCN3CCCCC3)cc2)n1 [Example 554]: 500 to 5000 nM
- CCN(CC)CCCNc1nc(Nc2ccccc2Cl)nc(Nc2cc(C3CC3)n[nH]2)c1Cl [Example 66]: < 50 nM
- CC(C)c1cc(Nc2nc(NCc3cc(-c4ccccc4)no3)ncc2Br)[nH]n1 [Example 10]: 50 to 500 nM
- Cc1ccc(CNc2ncc(Br)c(Nc3cc(C4CC4)n[nH]3)n2)o1 [Example 142]: 50 to 500 nM
- Cc1cc(Nc2cc(C3CC3)[nH]n2)nc(NCc2nc(-c3ccccc3)cs2)n1 [Example 252]: 500 to 5000 nM
- Nc1ncnc2c1c(-c1ccc(NC(=O)C3(C(=O)Nc4ccc(F)cc4)CC3)cc1)cn2CC1CC2CN(C(=O)OCc3ccccc3)CC2C1 (centres unmarked) [Example 357]: > 5000 nM

Short answer for Brc1cnc(Nc2ccc(-c3ccccc3)cc2)nc1Nc1cc(C2CC2)[nH]n1 [Example 322] : IC50 was > 5000 nM

Item: c1cc(N2CCOCC2)ccc1Nc1nc2c(c(Nc3cc(C4CC4)[nH]n3)n1)CCNC2 [Example 282] | IC50: > 5000 nM

Looking up CN1CCN(CCNC(=O)c2cc(Nc3cc(C4CC4)[nH]n3)nc(NCc3cc(-c4ccccc4)no3)n2)CC1 [Example 527] , I see its IC50 listed as 50 to 500 nM

* * *

testedSystem: IGF 3P (Homo sapiens, UniProt P08069)
Construct: human IGF1R kinase domain residues M954-C1367; made in house; host or cells: baculovirus expression (insect cells)
protocolSummary: IGF1R kinase assay (LCCA), IGF 3P
Format: biochemical
measurementParameters: IGF1R kinase LCCA assay
valueType: IC50

Below, each entry is followed by its recorded IC50 result.
• O=[N+]([O-])c1cnc(Nc2ccc(Cl)cc2Cl)nc1Nc1cc(C2CC2)n[nH]1 = > 5000 nM
• COc1cc(Nc2nc(C)cc(Nc3cc(C4CC4)n[nH]3)n2)cc(C(F)(F)F)c1 = > 5000 nM
• Cc1cc(Nc2ccc3ccccc3c2)nc(NCc2cc(-c3ccccc3)no2)n1 = > 5000 nM

IC50 in this record for CC(C)c1cc(CNc2nc(NCCN3CCN(C)CC3)cc(Nc3cc(C(C)C)[nH]n3)n2)on1 : < 50 nM

Record CC(=O)NCC#CCn1cc(-c2cccc(OCc3ccccc3)c2)c2c(N)ncnc21 . Reported IC50: > 5000 nM

Field IC50 (entry Fc1cnc(Nc2ccccc2Cl)nc1Nc1cc(C2CC2)[nH]n1 ) reads 500 to 5000 nM

Entry Cc1cc(Nc2cc(C3CC3)n[nH]2)nc(Nc2ccc3c(c2)CC(N)C3)n1 (centres unmarked) ; IC50 = 50 to 500 nM

Given item Brc1cnc(Nc2ccc3c(c2)OCCO3)nc1Nc1cc(C2CC2)n[nH]1 , the value recorded as its IC50 is 50 to 500 nM

Field IC50 (entry Clc1ccc(-c2ncc(CNc3ncc(Br)c(Nc4cc(C5CC5)[nH]n4)n3)s2)cc1 ) reads > 5000 nM

Item: O=C(NCCN1CCCC1)c1cc(Nc2cc(C3CC3)[nH]n2)nc(NCc2cc(-c3ccccc3)no2)n1 | IC50: < 50 nM

Lab note: Cc1cc(Nc2cc(C3CC3)[nH]n2)nc(NCc2cnc[nH]2)n1 gave IC50 of 500 to 5000 nM

IC50 for CN1CCC(NC(=O)c2ccc(Nc3nccc(Nc4cc(C5CC5)n[nH]4)n3)cc2)CC1 is 500 to 5000 nM

The recorded IC50 for Nc1ncnc2c1c(-c1cccc(OCc3ccccc3)c1)cn2CC1CC2CN(C(=O)OCc3ccccc3)CC2C1 (centres unmarked) is > 5000 nM

The compound listed as Cc1cc(Nc2nc(NCc3cc(-c4ccccc4)no3)ncc2Br)[nH]n1 has a reported IC50 of 500 to 5000 nM

Reported IC50 for CC(C)(C)c1cc(Nc2nc(Nc3ccccc3)ncc2Br)n[nH]1 was 50 to 500 nM

Form field IC50, entry CCN(CC)CCCNC(=O)c1cc(Nc2cc(C3CC3)[nH]n2)nc(NCc2cc(-c3ccccc3)no2)n1 : 50 to 500 nM

Kindly note the recorded IC50 for Brc1cnc(NC2CCNCC2)nc1Nc1cc(C2CC2)[nH]n1 , which is 500 to 5000 nM

* * *

testedSystem: (Homo sapiens, UniProt P08069)
Construct: human IGF1R kinase domain residues M954-C1367; made in house; host or cells: baculovirus expression (insect cells)
protocolSummary: IGF1R kinase assay (LCCA), IGF 0P
Format: biochemical
measurementParameters: IGF1R kinase LCCA assay
pIC50: −log10 of the molar value.
valueType: pIC50

Look over these answered cases.
• CCN(CC)CCNC(=O)c1cc(Nc2cc(C3CC3)[nH]n2)nc(NCc2cc(-c3ccccc3)no2)n1 = 6.30 to 7.30
• Brc1cnc(NC2CCNCC2)nc1Nc1cc(C2CC2)[nH]n1 = < 5.30
• CC(=O)Nc1cnc(Nc2ccccc2Cl)nc1Nc1cc(C2CC2)n[nH]1 = < 5.30

pIC50 recorded for this molecule, CN(C)C(=O)CCc1ccc(Nc2ncc(Br)c(Nc3cc(C4CC4)n[nH]3)n2)cc1 , is 6.30 to 7.30

* * *

testedSystem: (Homo sapiens)
Construct: human IGF1R kinase domain residues M954-C1367; made in house; host or cells: baculovirus expression (insect cells)
protocolSummary: IGF1R kinase assay (LCCA), IGF 0P
Type: biochemical
measurementParameters: IGF1R kinase LCCA assay
Each entry below carries its recorded IC50.

# annotated cases, reported IC50 shown
• COc1ccc(CNc2ncc(Br)c(Nc3cc(C4CC4)n[nH]3)n2)cc1OC = > 5 µM
• Clc1ccccc1Nc1ncc(Br)c(Nc2cc[nH]n2)n1 = 0.5 to 5 µM
• Clc1ccccc1Nc1ncc(Br)c(Nc2ccccc2Cl)n1 = 0.5 to 5 µM
• Brc1cnc(N2CCOCC2)nc1Nc1cc(C2CC2)[nH]n1 = > 5 µM
• Brc1cnc(Nc2cc(-c3ccccc3)n[nH]2)nc1Nc1cc(-c2ccccc2)n[nH]1 = > 5 µM
• Cc1cc(Nc2nc(NCc3cc(-c4ccccc4)no3)ncc2Br)no1 = > 5 µM
• Clc1ccc(CCNc2ncc(Br)c(Nc3cc(C4CC4)n[nH]3)n2)c(Cl)c1 = > 5 µM
• Brc1cnc(NCc2cc(-c3ccccc3)no2)nc1Nc1cc(-c2ccccc2)n[nH]1 = > 5 µM

Now consider the entry below.
Input Nc1ncnc2c1c(-c1cccc(OCc3ccccc3)c1)cn2C1CNC1 . Output IC50: > 5 µM
